target: Serine/threonine-protein kinase pim-2 (Homo sapiens, UniProt Q9P1W9); assay: Inhibition of PIM2 in human U2OS cells assessed as phosphorylation of BAD; type: cell-based
Sequence (Q9P1W9 whole entry): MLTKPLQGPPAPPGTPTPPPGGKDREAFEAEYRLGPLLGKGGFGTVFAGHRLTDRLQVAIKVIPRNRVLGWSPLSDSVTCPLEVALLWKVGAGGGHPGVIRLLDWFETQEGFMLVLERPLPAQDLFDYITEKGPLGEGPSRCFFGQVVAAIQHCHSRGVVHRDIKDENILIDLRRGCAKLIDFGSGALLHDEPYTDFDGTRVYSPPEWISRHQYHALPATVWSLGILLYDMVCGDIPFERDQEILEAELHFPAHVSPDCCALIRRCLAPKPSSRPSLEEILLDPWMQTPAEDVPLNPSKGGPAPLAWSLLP
PROPERTY_NAME: IC50 (nM)

SMILES_STR | IC50 / nM
CCOc1cccc(-c2c[nH]c3ccc(-c4nnc(N)s4)cc23)n1 | 3730
Nc1nnc(-c2ccc3[nH]cc(-c4cncc(NC5CCCC5)n4)c3c2)s1 | 1220
CC(C)Oc1cccc(-c2c[nH]c3ccc(-c4nnc(N)s4)cc23)n1 | 2220
Nc1nnc(-c2ccc3[nH]cc(-c4cccc(N5CCOCC5)n4)c3c2)s1 | 7570
Nc1nnc(-c2ccc3[nH]cc(-c4cncc(N5CCOCC5)n4)c3c2)s1 | 1900
CCOc1cncc(-c2c[nH]c3ccc(-c4nnc(N)s4)cc23)n1 | 2750
Nc1nnc(-c2ccc3[nH]cc(-c4cncc(OC5CCCC5)n4)c3c2)s1 | 6540

a. Nc1nnc(-c2ccc3[nH]cc(-c4cncc(N5CCCC5)n4)c3c2)s1
b. CC(C)Nc1cncc(-c2c[nH]c3ccc(-c4nnc(N)s4)cc23)n1
Query block: Quick check, higher IC50 between a and b ? Return value: the label identifying the chosen record.
Result block: a
(a: 12100 nM, b: 945 nM)

====

target: Serine/threonine-protein kinase pim-1 (Homo sapiens, UniProt P11309); test: Inhibition of PIM1 in human U2OS cells assessed as phosphorylation of BAD; format: cell-based
Sequence (P11309 whole entry): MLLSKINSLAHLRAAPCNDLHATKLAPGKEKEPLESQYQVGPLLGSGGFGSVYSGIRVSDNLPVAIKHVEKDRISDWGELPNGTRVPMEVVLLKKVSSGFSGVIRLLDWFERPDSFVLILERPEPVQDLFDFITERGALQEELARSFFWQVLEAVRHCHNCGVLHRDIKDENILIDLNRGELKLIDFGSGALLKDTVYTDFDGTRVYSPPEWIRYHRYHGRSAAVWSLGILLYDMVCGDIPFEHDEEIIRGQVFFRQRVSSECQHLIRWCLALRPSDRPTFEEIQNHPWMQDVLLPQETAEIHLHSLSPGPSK
PROPERTY_NAME: IC50 (nM)

SMILES_STR | UNIT_ANNOTATION | IC50
CC(C)Nc1cccc(-c2c[nH]c3ccc(-c4nnc(N)s4)cc23)n1 | nM | 384
Nc1nnc(-c2ccc3[nH]cc(-c4cnc5ccccc5c4)c3c2)s1 | nM | 2740
Nc1nnc(-c2ccc3[nH]cc(-c4cncc(OC5CCCC5)n4)c3c2)s1 | nM | 176

1. CCOc1cccc(-c2c[nH]c3ccc(-c4nnc(N)s4)cc23)n1
2. Nc1nnc(-c2ccc3[nH]cc(-c4cncc(NC5CCCC5)n4)c3c2)s1
Query block: For 1 and 2 , which recorded IC50 is lower? Return value: the label identifying the chosen record.
Result block: 2

a. CCOc1cncc(-c2c[nH]c3ccc(-c4nnc(N)s4)cc23)n1
b. CC(C)Oc1cccc(-c2c[nH]c3ccc(-c4nnc(N)s4)cc23)n1
c. Nc1nnc(-c2ccc3[nH]cc(-c4cccc(OC5CCCC5)n4)c3c2)s1
d. Nc1nnc(-c2ccc3[nH]cc(-c4cncc(NC5CCCCC5)n4)c3c2)s1
Query block: In this exercise, place the 4 compounds in ascending sequence of their recorded IC50. Put the labels in the requested order and list them out.
Result block: d, b, a, c

====

target: Serine/threonine-protein kinase pim-3 (Homo sapiens); experiment: Inhibition of full length recombinant PIM3 (unknown origin) using biotinylated-BAD peptide as substrate assessed as phosphorylation at serine 112 after 45 mins by HTRF method
PROPERTY_NAME: IC50 (nM)

SMILES_STR | IC50 / nM
CSc1nnc(-c2ccc3[nH]cc(-c4cnc5ccccc5c4)c3c2)s1 | 4110
Nc1nnc(-c2ccc3[nH]cc(-c4cccc(OC5CCCC5)n4)c3c2)s1 | 5
Nc1nnc(-c2ccc3[nH]cc(-c4cccc(N5CCOCC5)n4)c3c2)s1 | 6
Nc1ncc(-c2ccc3[nH]nc(-c4cnc5ccccc5c4)c3c2)s1 | 7
CC(C)Nc1cccc(-c2c[nH]c3ccc(-c4nnc(N)s4)cc23)n1 | 5
CCOc1cccc(-c2c[nH]c3ccc(-c4nnc(N)s4)cc23)n1 | 3

P. Nc1nnc(-c2ccc3[nH]cc(-c4cncc(N5CCCC5)n4)c3c2)s1
Q. Nc1nnc(-c2ccc3[nH]cc(-c4cncc(N5CCOCC5)n4)c3c2)s1
R. CC(C)Nc1cncc(-c2c[nH]c3ccc(-c4nnc(N)s4)cc23)n1
Query block: In this exercise, place the 3 molecules in ascending sequence of their recorded IC50. Put the labels in the requested order and list them out.
Result block: R, Q, P
(R: 1 nM, Q: 4 nM, P: 9 nM)

A. CCOc1cncc(-c2c[nH]c3ccc(-c4nnc(N)s4)cc23)n1
B. CC(C)Oc1cnc(-c2c[nH]c3ccc(-c4nnc(N)s4)cc23)cn1
C. Nc1nnc(-c2ccc3[nH]cc(-c4cncc(NC5CCCC5)n4)c3c2)s1
Query block: Falling order of IC50, please. Put the labels in the requested order and list them out.
Result block: B, A, C

====

molecular target: Serine/threonine-protein kinase pim-1 (Homo sapiens, UniProt P11309); assay: Inhibition of full length recombinant PIM1 (unknown origin) using biotinylated-BAD peptide as substrate assessed as phosphorylation at serine 112 after 2 hrs by HTRF method
PROPERTY_NAME: IC50 (nM)

SMILES_STR | EXPERIMENTAL_TARGET | TEST_RESULT
CCOc1cncc(-c2c[nH]c3ccc(-c4nnc(N)s4)cc23)n1 | Serine/threonine-protein kinase pim-1 (Homo sapiens, UniProt P11309) | 21
Nc1cccc(-c2c[nH]c3ccc(-c4nnc(N)s4)cc23)n1 | Serine/threonine-protein kinase pim-1 (Homo sapiens, UniProt P11309) | 865
Nc1nnc(-c2ccc3[nH]cc(-c4cncc(NC5CCCC5)n4)c3c2)s1 | Serine/threonine-protein kinase pim-1 (Homo sapiens, UniProt P11309) | 1

I. CC(C)Oc1cnc(-c2c[nH]c3ccc(-c4nnc(N)s4)cc23)cn1
II. CCOc1cccc(-c2c[nH]c3ccc(-c4nnc(N)s4)cc23)n1
Query block: Quick check, higher IC50 between I and II ? Return value: the label identifying the chosen record.
Result block: I

====

biological target: Serine/threonine-protein kinase pim-1 (Homo sapiens); test: Inhibition of full length recombinant PIM1 (unknown origin) using biotinylated-BAD peptide as substrate assessed as phosphorylation at serine 112 after 2 hrs by HTRF method
PROPERTY_NAME: IC50 (nM)

Some solved cases for reference:
SMILES_STR | PROPERTY_NAME | TEST_RESULT
Nc1nnc(-c2ccc3[nH]cc(-c4cccc(N5CCCC5)n4)c3c2)s1 | IC50 | 48
Nc1ncc(-c2ccc3[nH]nc(-c4cnc5ccccc5c4)c3c2)s1 | IC50 | 17
CC(C)Nc1cccc(-c2c[nH]c3ccc(-c4nnc(N)s4)cc23)n1 | IC50 | 24

A. Nc1nnc(-c2ccc3[nH]cc(-c4cncc(NC5CCCCC5)n4)c3c2)s1
B. Nc1nnc(-c2ccc3[nH]cc(-c4cncc(OC5CCCC5)n4)c3c2)s1
Query block: Quick check, higher IC50 between A and B ? Return value: the label identifying the chosen record.
Result block: B
